I'd appreciate it if you could supply IC50 values for the items below.
Target: human GluN1/GluN2B NMDA receptors (Homo sapiens, UniProt Q13224)
Sequence (Q13224 27-1484, other chains not shown): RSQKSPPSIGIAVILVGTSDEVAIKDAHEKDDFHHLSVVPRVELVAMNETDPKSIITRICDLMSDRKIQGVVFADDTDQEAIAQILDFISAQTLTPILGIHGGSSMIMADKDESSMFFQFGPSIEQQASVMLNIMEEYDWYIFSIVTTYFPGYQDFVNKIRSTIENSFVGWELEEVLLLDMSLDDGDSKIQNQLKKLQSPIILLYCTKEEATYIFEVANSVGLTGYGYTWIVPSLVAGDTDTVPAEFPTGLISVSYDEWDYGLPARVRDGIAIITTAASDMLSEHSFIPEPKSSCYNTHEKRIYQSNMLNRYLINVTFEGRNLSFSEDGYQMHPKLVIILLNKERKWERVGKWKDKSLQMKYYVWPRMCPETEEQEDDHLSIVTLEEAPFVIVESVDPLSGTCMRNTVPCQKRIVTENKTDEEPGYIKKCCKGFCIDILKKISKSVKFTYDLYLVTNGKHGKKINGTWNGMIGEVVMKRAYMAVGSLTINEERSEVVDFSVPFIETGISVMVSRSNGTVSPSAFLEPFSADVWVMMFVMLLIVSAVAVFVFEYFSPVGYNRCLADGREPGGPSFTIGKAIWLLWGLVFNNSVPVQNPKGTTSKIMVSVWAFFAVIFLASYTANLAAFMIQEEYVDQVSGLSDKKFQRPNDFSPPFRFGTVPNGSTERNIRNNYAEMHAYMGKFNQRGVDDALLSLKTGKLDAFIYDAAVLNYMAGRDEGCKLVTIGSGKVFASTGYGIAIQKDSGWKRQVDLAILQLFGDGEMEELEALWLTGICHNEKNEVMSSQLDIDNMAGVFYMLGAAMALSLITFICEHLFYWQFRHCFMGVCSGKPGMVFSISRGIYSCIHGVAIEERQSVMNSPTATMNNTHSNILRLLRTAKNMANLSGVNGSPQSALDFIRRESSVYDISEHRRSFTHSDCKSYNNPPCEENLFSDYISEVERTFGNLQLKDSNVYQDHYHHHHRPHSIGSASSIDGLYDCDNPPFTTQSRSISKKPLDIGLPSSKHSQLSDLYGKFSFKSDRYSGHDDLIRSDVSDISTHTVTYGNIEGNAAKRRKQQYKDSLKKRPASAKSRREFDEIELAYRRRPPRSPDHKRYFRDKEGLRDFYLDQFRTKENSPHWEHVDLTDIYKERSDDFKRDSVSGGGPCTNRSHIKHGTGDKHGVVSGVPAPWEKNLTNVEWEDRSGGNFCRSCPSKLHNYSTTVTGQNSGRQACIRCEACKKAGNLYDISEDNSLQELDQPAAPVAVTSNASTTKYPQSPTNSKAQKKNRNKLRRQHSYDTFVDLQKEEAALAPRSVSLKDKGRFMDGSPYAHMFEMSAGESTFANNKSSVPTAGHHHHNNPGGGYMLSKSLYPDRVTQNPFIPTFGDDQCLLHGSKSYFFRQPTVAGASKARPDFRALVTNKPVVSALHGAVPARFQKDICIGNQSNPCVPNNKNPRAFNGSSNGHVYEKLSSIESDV
Assay: Calcium flux (FLIPR) assay on cloned human NR1/GluN2B ion channels expressed in mammalian cells (standard and HTS variants)
Details: cells expressing human GluN1/GluN2B, glutamate and glycine co-agonists
Where a name gives a salt, the structure may show the parent alone.
Write the value in nM as a bare number.

// IC50 lookup, compound = `Fc1cccc(-c2cnc3cnn(Cc4ccccn4)c3c2)c1` , result: 2180

Form: compound = FC(F)(F)c1cccc(-c2cnc3cnn(Cc4ccncn4)c3c2)c1 [Example 6, hydrochloride salt] ; IC50 = 819

Consider `N#Cc1cncc(Cn2ncc3ncc(-c4cccc(C(F)F)c4F)cc32)c1` . Its measured IC50 is 67

// IC50 value for `Fc1ccc(-c2cnc3cnn(Cc4ccccn4)c3c2)cc1` : 3460

IC50 in this record for `N#Cc1cncc(Cn2ncc3ncc(-c4ccc(Cl)s4)cc32)c1` : 170

* * *

Target: human GluN1/GluN2B NMDA receptors (Homo sapiens)
Assay: Calcium flux (FLIPR) assay on cloned human NR1/GluN2B ion channels expressed in mammalian cells (standard and HTS variants)
Settings: cells expressing human GluN1/GluN2B, glutamate and glycine co-agonists
pIC50: −log10 of the molar value. Structures can show the parent of a compound that is named as a salt.
Param threshold (7) applies to pIC50; output TRUE when value >= threshold, FALSE when value < threshold.

Record `COc1cncc(Cn2ncc3ncc(-c4cccc(C(F)(F)F)c4)cc32)c1` ; criterion: pIC50 no lower than 7. Met?
FALSE

Does `FC(F)(F)c1cccc(-c2cnc3cnn(Cc4cncc(Br)c4)c3c2)c1` have a reported pIC50 of at least 7?
FALSE

Hello, I need to know if `Cc1ncc(Cn2ncc3ncc(-c4ccc(Cl)c(C)c4)cc32)cn1` has measured pIC50 not below 7. Thanks!
FALSE

Test whether the compound `Fc1cncc(Cn2ncc3ncc(-c4cc(F)c(F)c(F)c4)cc32)c1` records pIC50 of 7 or higher.
TRUE

API: above_or_equal(metric=pIC50, cutoff=7) for item `Cc1cncc(Cn2ncc3ncc(-c4ccc(F)c(C)c4F)cc32)c1`
TRUE

Decide: pIC50 of Cc1cc(-c2cnc3cnn(Cc4cccnn4)c3c2)ccc1F [Example 259, trifluoroacetate salt] >= 7?
TRUE

Does pIC50 meet or surpass 7 for `Cc1noc(Cn2ncc3ncc(-c4cc(C(F)(F)F)ccc4F)cc32)n1` ?
FALSE

Dear colleague, could you confirm whether `FC(F)(F)c1cccc(-c2cnc3cnn(Cc4cnccc4C(F)(F)F)c3c2)c1` has pIC50 at or above 7?
FALSE

Identify whether the reported pIC50 of the following compound is 7 or greater: `FC(F)(F)c1cccc(-c2cnc3cnn(Cc4ccon4)c3c2)c1`
FALSE

Reported pIC50 at or above 7? `Fc1ccc(Cn2ncc3ncc(-c4ccc(Cl)c(Cl)c4)cc32)cn1`
FALSE

Form field: pIC50 at least 7? Entry: `FC(F)(F)c1cccc(-c2cnc3cnn(Cc4cocn4)c3c2)c1`
FALSE

Is it the case that `Cc1nnc(Cn2ncc3ncc(-c4ccc(Cl)c(C(F)F)c4)cc32)s1` has pIC50 reaching or exceeding 7?
TRUE

Record `Cc1c(F)ccc(-c2cnc3cnn(Cc4nnc(C(F)(F)F)o4)c3c2)c1F` ; criterion: pIC50 no lower than 7. Met?
FALSE

Given `Fc1cc(F)cc(Cn2ncc3ncc(-c4ccc(F)c(OC(F)F)c4)cc32)c1` , state whether its pIC50 is at least 7.
FALSE

In plain terms: is recorded pIC50 at least 7 for `Fc1cc(-c2cnc3cnn(Cc4ccccn4)c3c2)cc(F)c1F` ?
FALSE

Confirm if pIC50 reported for the compound `Cc1cncc(Cn2ncc3ncc(-c4ccc(F)c(C(F)F)c4)cc32)c1` is 7 or above.
TRUE

Could you please find out whether `FC(F)(F)c1cccc(-c2cnc3cnn(Cc4csnn4)c3c2)c1` has pIC50 that meets 7 or exceeds it?
FALSE

Is pIC50 at least 7? Consider `Fc1cncc(Cn2ncc3ncc(-c4cccc(C(F)(F)F)c4)cc32)c1`
FALSE

# check: pIC50 of `COc1cncc(Cn2ncc3ncc(-c4ccc(F)c(F)c4)cc32)c1` is greater than or equal to 7
FALSE

Please indicate if the recorded pIC50 for `Cn1cnc(Cn2ncc3ncc(-c4cccc(C(F)(F)F)c4)cc32)c1` meets or exceeds 7.
FALSE

Can `Fc1cncc(Cn2ncc3ncc(-c4ccc(F)c(OC(F)F)c4)cc32)c1` be said to have pIC50 at or above 7?
TRUE

Test whether the compound `Fc1ccc(-c2cnc3cnn(Cc4nnco4)c3c2)cc1C(F)F` records pIC50 of 7 or higher.
TRUE

Given `Fc1ccc(-c2cnc3cnn(Cc4cncc(C(F)F)c4)c3c2)cc1C(F)F` , state whether its pIC50 is at least 7.
TRUE

Quick check, pIC50 >= 7? `Cc1cccc(-c2cnc3c(F)nn(Cc4cncc(F)c4)c3c2)c1`
TRUE

Reported pIC50 at or above 7? `COc1cncc(Cn2ncc3ncc(-c4cc(F)c(F)c(F)c4)cc32)c1`
FALSE

Hello, I need to know if `Cc1c(F)ccc(-c2cnc3cnn(Cc4ccccn4)c3c2)c1F` has measured pIC50 not below 7. Thanks!
FALSE

Is pIC50 at least 7? Consider `CC(=O)Nc1nnc(Cn2ncc3ncc(-c4ccc(F)c(OC(F)F)c4)cc32)s1`
FALSE

Say whether `FC(F)(F)c1cccc(-c2cnc3cnn(Cc4ccccn4)c3c2)c1` shows pIC50 of 7 or more.
FALSE

Has `Fc1ccc(-c2cnc3cnn(Cc4cncc(OC(F)F)c4)c3c2)cc1F` a recorded pIC50 greater than or equal to 7?
FALSE

Please check the record `Nc1nnc(Cn2ncc3ncc(-c4ccc(F)c(OC(F)F)c4)cc32)s1` and state if its pIC50 is at or above 7.
FALSE

* * *

Biological target: human GluN1/GluN2B NMDA receptors (Homo sapiens, UniProt Q13224)
Construct: expressed in transfected cells
Assay: Calcium flux (FLIPR) assay on cloned human NR1/GluN2B ion channels expressed in mammalian cells (standard and HTS variants)
Type: cell-based
Conditions: cells expressing human GluN1/GluN2B, glutamate and glycine co-agonists
Rule: IC50 below 300 nM gives criterion met, anything at or above gives criterion not met.

API: query returns whether the molecule falls strictly under 300 nM in IC50. Query: CC(C)c1nnc(Cn2ncc3ncc(-c4ccc(F)c(C(F)F)c4)cc32)o1 [Example 100]
criterion not met

Find out if reported IC50 for Cc1nnc(Cn2ncc3ncc(-c4ccc(Cl)c(OC(F)F)c4)cc32)s1 [Example 135] is less than 300 nM
criterion met

Problem: For the molecule Fc1ccc(-c2cnc3cnn(Cc4ccon4)c3c2)cc1C(F)F [Example 51] , is IC50 under 300 nM?
criterion met

Determine if COc1cccc(-c2cnc3cnn(Cc4ccccn4)c3c2)c1 [Example 154] shows IC50 strictly lower than 300 nM.
criterion not met

* * *

Molecular target: human GluN1/GluN2B NMDA receptors (Homo sapiens)
Assay: Calcium flux (FLIPR) assay on cloned human NR1/GluN2B ion channels expressed in mammalian cells (standard and HTS variants)
Settings: cells expressing human GluN1/GluN2B, glutamate and glycine co-agonists
Counter-ions that a name gives are not always drawn.
measure.name: log10 of IC50 (log10 of the value in nM)
Values below are the log10 of the recorded IC50, with nM as the unit.

# log10 of IC50 (compound: Fc1cncc(Cn2ncc3ncc(-c4ccc(Cl)cc4)cc32)c1 [Example 148, trifluoroacetate salt] ) is 2.80

The compound listed as `Fc1ccc(-c2cnc3cnn(Cc4nnc(C(F)(F)F)o4)c3c2)cc1OC(F)F` has a reported log10 of IC50 of 2.62

Entry under test: `Cc1ccc(Cn2ncc3ncc(-c4ccc(F)c(C(F)F)c4)cc32)nn1` . Its log10 of IC50 was 2.44

Lab book: log10 of IC50 of Cc1c(F)ccc(-c2cnc3cnn(Cc4cncc(F)c4)c3c2)c1F [Example 249, trifluoroacetate salt] noted as 1.60

Looking up `Cc1c(F)ccc(-c2cnc3cnn(Cc4cccnn4)c3c2)c1F` , I see its log10 of IC50 listed as 2.03

Record `COc1cncc(Cn2ncc3ncc(-c4ccc(F)cc4)cc32)c1` . Reported log10 of IC50: 2.61

The compound listed as `Cc1cnc(Cn2ncc3ncc(-c4ccc(F)c(C)c4F)cc32)o1` has a reported log10 of IC50 of 1.89

# log10 of IC50 of `FC(F)c1cccc(-c2cnc3cnn(Cc4cncc(Cl)c4)c3c2)c1` = 1.15

* * *

Target: human GluN1/GluN2B NMDA receptors (Homo sapiens, UniProt Q13224)
Assay: Calcium flux (FLIPR) assay on cloned human NR1/GluN2B ion channels expressed in mammalian cells (standard and HTS variants)
Conditions: cells expressing human GluN1/GluN2B, glutamate and glycine co-agonists
measure.name: log10 of IC50 (log10 of the value in µM)
A difference of one corresponds to tenfold IC50; all values are log10 with IC50 in µM.

Value of measured log10 of IC50 for the entry Fc1ccc(-c2cnc3cnn(Cc4ccno4)c3c2)cc1C(F)F [Example 50] : -1.51

Briefly, log10 of IC50 measured for N#Cc1cc(F)cc(Cn2ncc3ncc(-c4ccc(F)c(C(F)F)c4)cc32)c1 [Example 28] : -0.90

Value of log10 of IC50 reported for the molecule Cc1noc(Cn2ncc3ncc(-c4cccc(C(F)(F)F)c4)cc32)n1 [Example 84] is -0.53

// recorded log10 of IC50 for COc1cncc(Cn2ncc3ncc(-c4ccc(Cl)c(OC(F)F)c4)cc32)c1 [Example 242] : -0.30

According to the records, this molecule Fc1cncc(Cn2ncc3ncc(-c4cc(F)cc(F)c4)cc32)c1 [Example 185] displays log10 of IC50 of -1.35
